The reported measurements were obtained from FireProtDB (doi:10.1021/bi00105a011).

B1: Lysozyme C, P61626 (parent)
chain: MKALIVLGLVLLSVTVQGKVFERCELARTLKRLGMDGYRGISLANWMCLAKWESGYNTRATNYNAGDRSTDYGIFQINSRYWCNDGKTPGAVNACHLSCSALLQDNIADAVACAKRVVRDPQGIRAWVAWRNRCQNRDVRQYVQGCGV

variants of: B1; details: Homo sapiens; pH 3; 25 °C; GdnHCl; CD; glycine-HCl 40 mM; reversible: yes (100%); structure 1LZ1; whole UniProt chain shown
Label met when ddG of mutation (higher = less stable) is at or above 0.8 kcal/mol; otherwise label not met.

The examples below pair each entry with its known result.
{"columns": ["Input sequence", "Class label"],
 "data": [
  ["MKALIVLGLVLLSVTVQGKVFERCELARTLKRLGMDGYRGISLANWMCLAKWESGYNTRATNYNAGDRSTDYGIFQINSRYWCNDGKTPGAVNACHLSCSALLQDNIADAVACAKRVVRDPQGIRAWPAWRNRCQNRDVRQYVQGCGV [V128P]", "not met"],
  ["MKALIVLGLVLLSVTVQGKVFERCELARTLKRLGMDGYRGISLANWMCLAKWESGYNTRATNYNAGDRSTDYGIFQINSRYWCNDGKTGGAVNACHLSCSALLQDNIADAVACAKRVVRDGQGIRAWVAWRNRCQNRDVRQYVQGCGV [P89G P121G]", "met"],
  ["MKALIVLGLVLLSVTVQGKVFERCELARTLKRLGMDGYRGISLANWMCLAKWESGYNTRATNYNAGDRSTDYGIFQINSRYWCNDGKTGGAVNACHLSCSALLQDNIADAVACAKRVVRDPQGIRAWVAWRNRCQNRDVRQYVQGCGV [P89G]", "met"],
  ["MKALIVLGLVLLSVTVQGKVFERCELARTLKRLGMDGYRGISLANWMCLAKWESGYNTRATNYNAGDRSTDYGIFQINSRYWCNDGKTPGAVNACHLSCSALLQDNIADAVACAKRVVRDGQGIRAWVAWRNRCQNRDVRQYVQGCGV [P121G]", "not met"]
]}

Attention now shifts to the item below.
Could you please find out whether MKALIVLGLVLLSVTVQGKVFERCELARTLKRLGMDGYRGISLANWMCLAKWESGYNTRATNYNPGDRSTDYGIFQINSRYWCNDGKTPGAVNACHLSCSALLQDNIADAVACAKRVVRDPQGIRAWVAWRNRCQNRDVRQYVQGCGV [A65P] has ddG of mutation (higher = less stable) that meets 0.8 kcal/mol or exceeds it?
not met
